- System: 953936-095-R-J2-PDC spheroids with HUVEC/MSC, viability;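 also: spheroids exposed to compounds for seven days before read-out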
- measurement-notes: Anticancer human tumor 953936-095-R-J2-PDC patient-derived cervical squamous cell carcinoma cell line growth inhibition [PI3K]
- applied-conditions: curve of first compound; second compound 10 µM
parameter-measured: IC50 (µM)
Kindly provide the numeric value in µM only, without the unit symbol.

Ask: Please look at this compound and report its IC50: CC(C)NCC(C(=O)N1CCN(c2ncnc3c2C(C)CC3O)CC1)c1ccc(Cl)cc1 (stereo not given) + CC(Nc1ncnc2nc[nH]c12)c1cc2cccc(Cl)c2c(=O)n1-c1ccccc1
Reply: 0.393

Ask: Please look at this compound and report its IC50: CC1(C)CCC(CN2CCN(c3ccc(C(=O)NS(=O)(=O)c4ccc(NCC5CCOCC5)c([N+](=O)[O-])c4)c(Oc4cnc5[nH]ccc5c4)c3)CC2)=C(c2ccc(Cl)cc2)C1 + CC(Nc1ncnc2nc[nH]c12)c1cc2cccc(Cl)c2c(=O)n1-c1ccccc1
Reply: 4.9
